Origin of measurements: ChEMBL document CHEMBL1151686

EXPERIMENTAL_TARGET: Protease (Human immunodeficiency virus 1) (UniProt Q9YQ12)
Sequence (Q9YQ12 as listed by the source): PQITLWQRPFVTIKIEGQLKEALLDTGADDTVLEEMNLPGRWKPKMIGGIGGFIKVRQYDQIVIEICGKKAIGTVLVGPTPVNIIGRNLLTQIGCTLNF
METHOD_NOTES: Inhibition of recombinant HIV1 protease at 50 nM
Quick rule: inhibition of at least 30% means satisfied, below that means not satisfied.

Consider the following illustrative entries.
>>> df
                           substance_smiles    class_label
0  CC1(C)SCN(C(=O)[C@@H](O)[C@H](Cc2ccccc2)NC(=O)COc2ccccc2N)[C@@H]1C(=O)N[C@H]1c2ccccc2C[C@H]1O      satisfied
1  Cc1cc(N(C)C)cc(C)c1OCC(=O)N[C@@H](Cc1ccccc1)[C@H](O)C(=O)N1CSC(C)(C)[C@H]1C(=O)N[C@H]1c2ccccc2C[C@H]1O      satisfied
2  CC1(C)SCN(C(=O)[C@@H](O)[C@H](Cc2ccccc2)NC(=O)COc2cccc(N)c2)[C@@H]1C(=O)N[C@H]1c2ccccc2C[C@H]1O  not satisfied
3  Cc1cccc(OCC(=O)N[C@@H](Cc2ccccc2)[C@H](O)C(=O)N2CSC(C)(C)[C@H]2C(=O)N[C@H]2c3ccccc3C[C@H]2O)c1  not satisfied

Q: Hello, I need to know if `CC1(C)SCN(C(=O)[C@@H](O)[C@H](Cc2ccccc2)NC(=O)COc2cccc(CO)c2)[C@@H]1C(=O)N[C@H]1c2ccccc2C[C@H]1O` has measured inhibition not below 30%. Thanks!
A: not satisfied

Q: Hello, I need to know if `COc1ccccc1OCC(=O)N[C@@H](Cc1ccccc1)[C@H](O)C(=O)N1CSC(C)(C)[C@H]1C(=O)N[C@H]1c2ccccc2C[C@H]1O` has measured inhibition not below 30%. Thanks!
A: not satisfied
